List of IC50 values.
- System tested: USP28 (His-tagged USP28-FL-mammalian) (Homo sapiens, UniProt Q96RU2)
- Construct: Expression of USP28 (1-1077)-TEV-6*His (pTT5 vector); made in house; host or cells: Expi293f cells (pTT5 vector)
- Sequence (Q96RU2 whole entry): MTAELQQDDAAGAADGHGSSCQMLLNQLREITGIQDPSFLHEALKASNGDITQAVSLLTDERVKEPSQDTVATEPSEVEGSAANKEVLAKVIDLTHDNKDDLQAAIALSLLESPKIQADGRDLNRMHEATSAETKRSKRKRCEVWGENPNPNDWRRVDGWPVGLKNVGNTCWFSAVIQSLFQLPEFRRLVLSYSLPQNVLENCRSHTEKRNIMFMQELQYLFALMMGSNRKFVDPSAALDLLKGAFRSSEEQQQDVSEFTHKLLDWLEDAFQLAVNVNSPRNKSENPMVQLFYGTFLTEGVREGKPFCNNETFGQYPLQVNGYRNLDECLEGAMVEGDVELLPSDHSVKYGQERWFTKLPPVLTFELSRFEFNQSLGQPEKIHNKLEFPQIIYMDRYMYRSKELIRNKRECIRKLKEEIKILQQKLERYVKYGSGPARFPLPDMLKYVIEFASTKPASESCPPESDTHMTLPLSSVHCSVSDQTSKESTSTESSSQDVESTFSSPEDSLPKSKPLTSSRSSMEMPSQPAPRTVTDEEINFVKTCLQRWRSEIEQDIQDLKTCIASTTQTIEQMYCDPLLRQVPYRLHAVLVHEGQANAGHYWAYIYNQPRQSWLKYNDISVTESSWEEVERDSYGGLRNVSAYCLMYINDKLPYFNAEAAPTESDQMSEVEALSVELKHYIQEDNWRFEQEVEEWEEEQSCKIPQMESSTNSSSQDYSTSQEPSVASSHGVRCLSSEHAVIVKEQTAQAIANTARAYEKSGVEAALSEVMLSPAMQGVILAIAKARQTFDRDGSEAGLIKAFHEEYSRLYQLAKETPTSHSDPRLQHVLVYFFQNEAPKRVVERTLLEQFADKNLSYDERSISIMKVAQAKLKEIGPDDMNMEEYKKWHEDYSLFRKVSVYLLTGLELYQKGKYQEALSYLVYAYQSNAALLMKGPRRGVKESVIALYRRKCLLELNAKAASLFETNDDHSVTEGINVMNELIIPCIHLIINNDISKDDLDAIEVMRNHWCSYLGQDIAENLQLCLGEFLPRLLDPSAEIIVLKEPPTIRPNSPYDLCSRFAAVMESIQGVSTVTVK
- Protocol: Ubiquitin-Rhodamine 110 Assay for USP28 Activity, Example A-1(a)
- Assay type: biochemical
- Experimental context: Ubiquitin-Rhodamine 110 assay, Example A-1(a); read-out: USP28 A-1(a) IC50 range

The examples below pair each entry with its known result.
Cc1ccc2c(N)c(C(=O)N[C@H]3CCc4nc(N5CCN[C@@H](C(F)F)C5)ccc4C3)sc2n1 ... 0.05 to 0.2 µM
Cc1cnc2c(N)c(C(=O)N[C@@H]3CCc4cc(N5CC6CCC(C5)N6)cc(F)c4C3)sc2n1 (single isomer, unassigned) ... 0.001 to 0.05 µM
Cc1ccc2c(N)c(C(=O)N[C@H]3COc4cc(N5C[C@@H](N)[C@H](OC(F)(F)F)C5)ccc4C3)sc2n1 (single isomer, unassigned) ... 0.05 to 0.2 µM
CCn1ccc2cc(C(=O)N[C@@H]3CCc4cc(N5CC6CCC(C5)N6)ccc4C3)cnc21 (single isomer, unassigned) ... 0.05 to 0.2 µM

Asked: Value lookup for IC50; key = Cc1ccc2c(N)c(C(=O)N[C@H]3CCc4nc(N5C[C@H](N)[C@H](OC(C)(F)F)C5)ccc4C3)sc2n1
Given back: 0.05 to 0.2 µM

Asked: Value lookup for IC50; key = CO[C@H]1CCN(c2ccc3c(c2)OC[C@H](NC(=O)c2sc4nc(C)cc(C)c4c2N)C3)C[C@@H]1N
Given back: 0.001 to 0.05 µM

----------
List of IC50 values.
- System tested: USP28 (His-tagged USP28-FL-mammalian) (Homo sapiens)
- Construct: Expression of USP28 (1-1077)-TEV-6*His (pTT5 vector); made in house; host or cells: Expi293f cells (pTT5 vector)
- Protocol: Ubiquitin-Rhodamine 110 Assay for USP28 Activity, Example A-1(a)
- Type: biochemical
- Experimental context: Ubiquitin-Rhodamine 110 assay, Example A-1(a); read-out: USP28 A-1(a) IC50 range

Cc1cnc2c(N)c(C(=O)N[C@H]3CCc4cc(N5CC6CCC(C5)N6)cc(F)c4C3)sc2n1 (single isomer, unassigned) [Example 11-13] ... 200 to 2000 nM
Cc1ccc2c(N)c(C(=O)N[C@H]3COc4cc(N5CC6(C5)OCC[C@H]6N)ccc4C3)sc2n1 [Example 337] ... 1 to 50 nM

Asked: Value lookup for IC50; key = Cc1ccc2c(N)c(C(=O)N[C@H]3COc4cc(N5CCC[C@](C)(O)C5)ccc4C3)sc2n1 [Example 7-2]
Given back: 1 to 50 nM

Asked: Value lookup for IC50; key = Cc1ccc2c(N)c(C(=O)N[C@H]3COc4cc(N5CC[C@@H]6CCNC[C@@H]65)ccc4C3)sc2n1 [Example 225]
Given back: 1 to 50 nM

Asked: Value lookup for IC50; key = Cc1ccc2c(N)c(C(=O)N[C@H]3CCc4nc(N5C[C@H](N)[C@]6(CCOC6)C5)ccc4C3)sc2n1 [Example 430]
Given back: 50 to 200 nM

Asked: Value lookup for IC50; key = O=C(N[C@H]1COc2cc(N3CC4CCC(C3)N4)ccc2C1)c1cnc2c(c1)[C@@H]1C[C@@H]1CN2 [Example 3-15]
Given back: 1 to 50 nM

Asked: Value lookup for IC50; key = Cc1ccc2c(N)c(C(=O)N[C@H]3COc4cc(N5C[C@H](OC6CC6)[C@@H](N)C5)ccc4C3)sc2n1 [Example 140]
Given back: 1 to 50 nM
